- Tested on: D-aminoacylase derived from Sebekia benihana IFO14309
- protocol text: Influences of inhibitors on the activity of the enzyme
- Format: biochemical
- details: inhibitor 1 mM
assay metric: Residual activity (%)

{"columns": ["molecule", "reported measurement"],
 "data": [
  ["CCN1C(=O)C=CC1=O [N-ethyl-maleimide]", 106],
  ["[F-].[Na+]", 100],
  ["OC(CS)C(O)CS (stereo not shown)", 8.1],
  ["c1ccc(-c2ccccn2)nc1", 100]
]}

* * *

- Tested on: Sebekia benihana IFO14309
- protocol text: Induction of D-aminoacylase, experiment 1 (PY liquid medium, 0.10% inducer)
- Assay type: cell-based
- details: 20 mM N-acetyl-D-methionine, 30° C., 20 min
// label = yes if Specific activity is not less than 0.05 U/mg, otherwise no

{"columns": ["molecule", "group label"],
 "data": [
  ["CC(C)C(N)C(=O)O (racemic)", "yes"],
  ["CSCCC(NC(C)=O)C(=O)O (racemic)", "no"],
  ["CC(=O)NC(C(=O)O)C(C)C (racemic)", "no"],
  ["CC(C)CC(N)C(=O)O (racemic)", "yes"],
  ["CSCCC(N)C(=O)O (racemic)", "no"],
  ["CC(=O)NC(CC(C)C)C(=O)O (racemic)", "yes"]
]}
